# Tested Target: lambda cI repressor, hexa-histidine-tagged (bacteriophage lambda, UniProt P03034 1-237)
# Sequence (P03034 whole entry): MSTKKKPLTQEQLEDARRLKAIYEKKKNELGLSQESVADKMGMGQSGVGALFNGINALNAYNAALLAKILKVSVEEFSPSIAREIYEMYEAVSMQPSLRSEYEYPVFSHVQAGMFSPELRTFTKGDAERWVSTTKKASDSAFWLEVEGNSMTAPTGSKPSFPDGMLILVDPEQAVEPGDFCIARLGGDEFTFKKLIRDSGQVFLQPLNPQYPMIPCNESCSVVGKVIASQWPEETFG
# Method Notes: filter binding

Binder	Reading Unit	Kd
aptamer Tarap (Guu(0/-7)) (structured_RNA) RNA: GGGAUCGACAGGGCUCCCGUUUGGCUCGGCGAAGAUCGCCUGUACUUUGGAAAGCCGAGUCGU	nM	518
